Experiment: Log P by HPLC on reversed phase columns, method [a] (EEC directive 79/831 Annex V.A8)
Assay type: physicochemical
Settings: log P determined according to method [a] (HPLC on reversed phase columns)
experimental.readout: logP

Example entries and their recorded answers appear below.
compound: Fc1ccccc1Nc1ccc(-c2nnc(C(F)F)o2)cc1 [Example I-017]
observed.value: 3.19
//
compound: FC(F)c1nnc(-c2ccc(C(F)(F)F)nc2)o1 [Example I-037]
observed.value: 2.39
//
compound: CSc1ccc(-c2nnc(C(F)F)o2)cc1 [Example I-002]
observed.value: 2.75
//
compound: CC(Nc1ccc(-c2nnc(C(F)F)o2)cn1)c1ccc(F)cc1 (centres unmarked) [Example I-052]
observed.value: 2.95
//
compound: O=C(Nc1ccc(F)cc1F)c1ccc(-c2nnc(C(F)(F)F)s2)cc1 [Example I-029]
observed.value: 3.29
//
compound: FC(F)c1nnc(-c2cnc(NCC3CC3)nc2)o1 [Example I-067]
observed.value: 2.16
//
compound: CC1(C)OB(c2ccc(-c3nnc(C(F)F)o3)cc2)OC1(C)C [Example I-021]
observed.value: 3.84
//
compound: COCCNC(=O)c1ccc(-c2nnc(C(F)F)o2)cc1 [Example I-016]
observed.value: 1.58
//
compound: Fc1ccc(Oc2ncc(-c3nnc(C(F)F)o3)cn2)cc1 [Example I-098]
observed.value: 2.51
//
compound: COC(=O)c1ccc(-c2nnc(C(F)(F)F)o2)cc1 [Example I-006]
observed.value: 2.97

1: CN(C(=O)c1ccc(-c2nnc(C(F)F)o2)cn1)c1ccccc1 [Example I-049]
2: Nc1ccc(-c2nnc(C(F)F)o2)cn1 [Example I-030]
Looking at recorded values for logP, does 1 or 2 come in lower? Answer by stating the label of the chosen item.
2

I: CC1(C(=O)Nc2ccc(-c3nnc(C(F)F)o3)cn2)CC1 [Example I-045]
II: COCCNC(=O)c1ccc(-c2nnc(C(F)F)o2)cn1 [Example I-047]
Returns: the argument ( I or II ) having the larger logP. Mark your answer with the label of the selected entry.
I

P: FC(F)c1nnc(-c2cnc(NCc3ccccc3)nc2)o1 [Example I-088]
Q: O=C(O)c1ccc(-c2nnc(C(F)F)o2)cc1 [Example I-001]
Decide: P or Q , by lowest recorded logP. Provide the label of your selected option as the answer.
Q
